biological target: hENPP2 (UniProtKB/SwissProt Sequence ref Q13822) (Homo sapiens (Human), UniProt Q13822); assay: FS3 hENPP2 assay (fluorogenic substrate FS-3); assay type: biochemical; details: hENPP2, FS-3 as substrate
A collection of compounds and their measured IC50

Example compounds with recorded IC50:
Compound: CCc1nc2ccc(C3CCN(CC(=O)N4CC(O)C4)CC3)nn2c1N(C)c1ccnc(-c2ccc(F)cc2)n1
IC50: 0.01 to 25 nM
//
Compound: CCc1nc2cnc(N3CCN(C(=O)CN4CC(O)C4)CC3)cn2c1N(C)c1nc(-c2ccc(F)cc2)c(C#N)s1
IC50: 0.01 to 25 nM

Query: IC50; subject: CCc1nc2ccc(N3CCN(C(=O)C4CCCO4)CC3)nn2c1N(C)c1nc(-c2ccc(F)cc2)cs1 (stereo not drawn)
0.01 to 25 nM

Follow-up item: "CCc1nc2ccc(N3CC(NC(=O)OC(C)(C)C)C3)nn2c1N(C)c1nc(-c2ccc(F)cc2)cs1"
0.01 to 25 nM

Follow-up item: "CCc1nc2ccc(N3CCC(N4CCOCC4)CC3)nn2c1N(C)c1nc(-c2ccc(F)cc2)cs1"
0.01 to 25 nM

Follow-up item: "CCc1nc2ccc(N3CCN(CCOC)CC3)nn2c1N(C)c1nc(-c2ccc(F)cc2)cs1"
0.01 to 25 nM

Follow-up item: CCc1nc2ccc(N3CCC(N4CCSCC4)C3)nn2c1N(C)c1nc(-c2ccc(F)cc2)cs1 (stereo not drawn)
0.01 to 25 nM

Follow-up item: "CCc1nc2ccc(C3=CCN(C(=O)OC(C)(C)C)CC3)nn2c1N(C)c1nc(-c2ccc(F)cc2)cs1"
0.01 to 25 nM

Follow-up item: "CCc1nc2cnc(N3CCN(CC(=O)N4CC(O)C4)CC3)cn2c1N(C)c1ncc(C#N)c(-c2ccc(F)cc2)n1"
> 100 nM

Follow-up item: "CCc1nc2ccc(N3CCC(CC(=O)N(C)C)CC3)nn2c1N(C)c1nc(-c2ccc(F)cc2)cs1"
0.01 to 25 nM

Follow-up item: CCc1nc2ccc(N3CCCC3CO)nn2c1N(C)c1nc(-c2ccc(F)cc2)cs1 (stereo not drawn)
0.01 to 25 nM

Follow-up item: "CCc1nc2ccc(N3CCN[C@H](CO)C3)nn2c1N(C)c1nc(-c2ccc(F)cc2)cs1"
0.01 to 25 nM
